Hey, just so you know, these numbers are from patent US20250295799A1.

Below, each entry is listed alongside its reported Kd Fold difference (hu/cyno).
target-desc: T1, recombinant cynomolgus GPC3 (glypican-3) (cynomolgus monkey, UniProt A0A2K5VK50 24-558)
T1 construct: also called cynoGPC3
protocol-summary: SPR; Kd on human GPC3 divided by Kd on cynomolgus GPC3
Please reply with the bare figure in fold and do not write the unit itself.

Please review the entries below; each comes with its answer.
{"columns": ["binder", "Kd Fold difference (hu/cyno) [fold]"],
 "data": [
  ["v40221, H18L6_LC_N33S mAb (antibody, human IgG1, kappa, V domains shown, no number given for this variant) VH: QVQLVQSGAEVKKPGSSVKVSCKASGYTFTDYEMHWVKQAPGHGLEWIGAIDPETGDTAYNQKFKGKATLTADTSTSTAYMELSSLRSEDTAVYYCTRYFSFAYWGQGTLVTVSS VL: EIVLTQSPATLSLSPGERATISCRSSQSLRHSSGNTYLQWYQQKPGQAPRLLIYKVSNRFSGVPARFSGSGSGTDFTLTISSLEPEDFAVYFCYQSKHVPYTFGGGTKVEIKR", 1.24],
  ["v40210, H18L6_LC_G34S mAb (antibody, human IgG1, kappa, V domains shown, no number given for this variant) VH: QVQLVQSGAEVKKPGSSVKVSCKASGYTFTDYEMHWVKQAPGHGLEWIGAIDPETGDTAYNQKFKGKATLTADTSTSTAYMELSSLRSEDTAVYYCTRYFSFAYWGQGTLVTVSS VL: EIVLTQSPATLSLSPGERATISCRSSQSLRHSNSNTYLQWYQQKPGQAPRLLIYKVSNRFSGVPARFSGSGSGTDFTLTISSLEPEDFAVYFCYQSKHVPYTFGGGTKVEIKR", 1.56]
]}

Switching to the query record.
Q) Look up Kd Fold difference (hu/cyno): v40207, H18L6_LC_G34K mAb (antibody, human IgG1, kappa, V domains shown) VH: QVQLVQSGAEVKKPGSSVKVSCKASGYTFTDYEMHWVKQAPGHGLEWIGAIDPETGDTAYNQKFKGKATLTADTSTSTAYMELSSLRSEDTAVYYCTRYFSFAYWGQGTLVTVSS VL: EIVLTQSPATLSLSPGERATISCRSSQSLRHSNKNTYLQWYQQKPGQAPRLLIYKVSNRFSGVPARFSGSGSGTDFTLTISSLEPEDFAVYFCYQSKHVPYTFGGGTKVEIKR
A) 1.58
